Data origin: paper PMC10967270

Assay: Colistin concentration in plasma after CMS nebulization
Assay type: in vivo
Conditions: human, inhaled or intranasal, 1 h after start (time by position in Figure 1c), CMS 0.9375 MIU nebulized over 30 min, LC-MS/MS, 20 patients, read-out: Median colistin concentration in plasma
Positions of bridges follow the written chain, without caps; N, C: chain ends. Non-standard residues stand in square brackets, D forms with d. Residues, ends and D or L forms follow the SMILES beside them. *: point of attachment. X1 = CC[C@H](C)CCCCC(=O)*; Dab = NCC[C@H](N)C(=O)O
attribute.measured: level at 1 h (ng/mL)

{"columns": ["compound", "attribute.measured", "scale.unit", "numeric.value"],
 "data": [
  ["CC[C@H](C)CCCCC(=O)N[C@@H](CCN)C(=O)N[C@H](C(=O)N[C@@H](CCN)C(=O)N[C@H]1CCNC(=O)[C@H]([C@@H](C)O)NC(=O)[C@H](CCN)NC(=O)[C@H](CCN)NC(=O)[C@H](CC(C)C)NC(=O)[C@@H](CC(C)C)NC(=O)[C@H](CCN)NC1=O)[C@@H](C)O [colistin] (X1-[Dab]T[Dab][Dab][Dab][dL]L[Dab][Dab]T; lactam 4-C)", "level at 1 h", "ng/mL", 19.2]
]}
